Molecular target: Recombinant Human ENPP-2/Autotaxin (Homo sapiens)
Construct: purchased R&D systems 5255-EN
Assay: LysoPLD activity measurement (autotaxin enzyme inhibition, choline release, TOOS reagent)
Format: biochemical
Settings: LysoPLD inhibitory activity; substrate 14:0 LysoPC; absorbance at 555 nm
readout_name: IC50

Sample records with IC50:
O=C(O)c1cccc(C2(n3c(=O)n(-c4ccc(C(=O)N5CC6(CCOCC6)C5)cc4)c4cc(Cl)ccc43)CC2)c1 :: < 10 nM
CN1Cc2cc(-n3c(=O)n(Cc4cccc(C(=O)O)c4)c4ccc(Cl)cc43)ccc2C1=O :: 100 to 1000 nM
C[C@H]1COCCN1C(=O)c1ccc(-n2c(=O)n(C3(c4cccc(C(=O)O)c4F)CC3)c3ccc(Cl)cc32)cc1 :: < 10 nM

From here, focus on the item given below.
Param item = O=C(O)c1cccc(Cn2c(=O)n(-c3ccc(OCC4CCC4)cc3)c3cc(Cl)ccc32)c1 ; retrieve measured IC50.
100 to 1000 nM
